Experiment: physchem
Settings: 25 °C, aqueous with cosolvent or surfactant or cyclodextrin, thermodynamic from solid, solubility with CD-g-CS
assayReadout: solubility at 2 h (µg/mL)

INSERT INTO assay_data (molsmiles, unitlabel, measurednumber) VALUES
  ('COc1cc(NS(=O)(=O)c2ccc(N)cc2)ncn1', 'µg/mL', 283);

* * *

Assay: physchem
Details: water, thermodynamic from solid
assayReadout: solubility (µg/mL)

INSERT INTO results (molsmiles, assayreadout, measurednumber) VALUES
  ('Nc1ccc(S(=O)(=O)Nc2ncccn2)cc1', 'solubility', 26);
